The reported numbers originate from patent US8501683B2.

Molecular target: sodium-taurocholate cotransporting polypeptide (NTCP) (Homo sapiens)
Sequence (Q14973 1-349): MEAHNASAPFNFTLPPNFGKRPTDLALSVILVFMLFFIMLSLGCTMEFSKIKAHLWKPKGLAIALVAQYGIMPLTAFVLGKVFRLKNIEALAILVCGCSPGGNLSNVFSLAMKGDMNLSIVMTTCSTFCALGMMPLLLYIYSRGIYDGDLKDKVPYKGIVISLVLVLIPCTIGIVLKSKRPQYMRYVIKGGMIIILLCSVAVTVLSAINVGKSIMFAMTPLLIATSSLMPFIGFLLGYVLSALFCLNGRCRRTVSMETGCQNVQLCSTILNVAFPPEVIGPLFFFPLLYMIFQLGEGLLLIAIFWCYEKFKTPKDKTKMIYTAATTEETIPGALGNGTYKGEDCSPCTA
Assay: NTCP inhibition, taurocholate uptake in CHO cells
Format: in vitro ADME
Conditions: IC50 ratio compared to Debio 025
Square brackets hold non-standard residues; d marks the D form. Peptide text beside a SMILES is read from it. MeBmt = C/C=C/C[C@@H](C)[C@@H](O)[C@H](NC)C(=O)O; NMeL = CN[C@@H](CC(C)C)C(=O)O; NMeV = CN[C@H](C(=O)O)C(C)C; dHiv = CC(C)[C@@H](O)C(=O)O; dNMeA = CN[C@H](C)C(=O)O; Abu = CC[C@H](N)C(=O)O

{"columns": ["COMPOUND", "NTCP fold Debio 025"],
 "data": [
  ["C/C=C/C[C@@H](C)[C@@H](O)[C@H]1C(=O)N[C@@H](CC)C(=O)N(C)[C@H](C)C(=O)N(C)[C@@H](C(C)C)C(=O)N[C@@H](CC(C)C)C(=O)N(C)[C@@H](CC(C)C)C(=O)N[C@@H](C)C(=O)O[C@H](C(C)C)C(=O)N(C)[C@@H](CC(C)C)C(=O)N[C@@H](CC(C)C)C(=O)N(C)[C@@H](C(C)C)C(=O)N1C [(Id)] (cyclo(A[dHiv][NMeL]L[NMeV][MeBmt][Abu][dNMeA][NMeV]L[NMeL]))", 1.2],
  ["C/C=C/C[C@@H](C)[C@@H](O)[C@H]1C(=O)N[C@@H](CC)C(=O)N(C)[C@H](C)C(=O)N(CC)[C@@H](C(C)C)C(=O)N[C@@H](C(C)C)C(=O)N(C)[C@@H](CC(C)C)C(=O)N[C@@H](C)C(=O)N[C@H](C)C(=O)N(C)[C@@H](CC(C)C)C(=O)N(C)[C@@H](CC(C)C)C(=O)N(C)[C@@H](C(C)C)C(=O)N1C [Debio 025, [D-MeAla]^3-[EtVal]^4-CsA, reference compound]", 1],
  ["C/C=C/C[C@@H](C)[C@@H](O)[C@H]1C(=O)N[C@@H](C(C)C)C(=O)N(C)[C@H](C)C(=O)N(C)[C@@H](C(C)C)C(=O)N[C@@H]([C@@H](C)CC)C(=O)N(C)[C@@H](CC(C)C)C(=O)NCC(=O)O[C@H](C(C)C)C(=O)N(C)[C@@H](CC(C)C)C(=O)N[C@@H](CC(C)C)C(=O)N(C)[C@@H](C(C)C)C(=O)N1C [(Ic)] (cyclo(G[dHiv][NMeL]L[NMeV][MeBmt]V[dNMeA][NMeV]I[NMeL]))", 0.11]
]}
